measurement-target: DNA topoisomerase 2-alpha (Homo sapiens, UniProt P11388)
Sequence (P11388 whole entry): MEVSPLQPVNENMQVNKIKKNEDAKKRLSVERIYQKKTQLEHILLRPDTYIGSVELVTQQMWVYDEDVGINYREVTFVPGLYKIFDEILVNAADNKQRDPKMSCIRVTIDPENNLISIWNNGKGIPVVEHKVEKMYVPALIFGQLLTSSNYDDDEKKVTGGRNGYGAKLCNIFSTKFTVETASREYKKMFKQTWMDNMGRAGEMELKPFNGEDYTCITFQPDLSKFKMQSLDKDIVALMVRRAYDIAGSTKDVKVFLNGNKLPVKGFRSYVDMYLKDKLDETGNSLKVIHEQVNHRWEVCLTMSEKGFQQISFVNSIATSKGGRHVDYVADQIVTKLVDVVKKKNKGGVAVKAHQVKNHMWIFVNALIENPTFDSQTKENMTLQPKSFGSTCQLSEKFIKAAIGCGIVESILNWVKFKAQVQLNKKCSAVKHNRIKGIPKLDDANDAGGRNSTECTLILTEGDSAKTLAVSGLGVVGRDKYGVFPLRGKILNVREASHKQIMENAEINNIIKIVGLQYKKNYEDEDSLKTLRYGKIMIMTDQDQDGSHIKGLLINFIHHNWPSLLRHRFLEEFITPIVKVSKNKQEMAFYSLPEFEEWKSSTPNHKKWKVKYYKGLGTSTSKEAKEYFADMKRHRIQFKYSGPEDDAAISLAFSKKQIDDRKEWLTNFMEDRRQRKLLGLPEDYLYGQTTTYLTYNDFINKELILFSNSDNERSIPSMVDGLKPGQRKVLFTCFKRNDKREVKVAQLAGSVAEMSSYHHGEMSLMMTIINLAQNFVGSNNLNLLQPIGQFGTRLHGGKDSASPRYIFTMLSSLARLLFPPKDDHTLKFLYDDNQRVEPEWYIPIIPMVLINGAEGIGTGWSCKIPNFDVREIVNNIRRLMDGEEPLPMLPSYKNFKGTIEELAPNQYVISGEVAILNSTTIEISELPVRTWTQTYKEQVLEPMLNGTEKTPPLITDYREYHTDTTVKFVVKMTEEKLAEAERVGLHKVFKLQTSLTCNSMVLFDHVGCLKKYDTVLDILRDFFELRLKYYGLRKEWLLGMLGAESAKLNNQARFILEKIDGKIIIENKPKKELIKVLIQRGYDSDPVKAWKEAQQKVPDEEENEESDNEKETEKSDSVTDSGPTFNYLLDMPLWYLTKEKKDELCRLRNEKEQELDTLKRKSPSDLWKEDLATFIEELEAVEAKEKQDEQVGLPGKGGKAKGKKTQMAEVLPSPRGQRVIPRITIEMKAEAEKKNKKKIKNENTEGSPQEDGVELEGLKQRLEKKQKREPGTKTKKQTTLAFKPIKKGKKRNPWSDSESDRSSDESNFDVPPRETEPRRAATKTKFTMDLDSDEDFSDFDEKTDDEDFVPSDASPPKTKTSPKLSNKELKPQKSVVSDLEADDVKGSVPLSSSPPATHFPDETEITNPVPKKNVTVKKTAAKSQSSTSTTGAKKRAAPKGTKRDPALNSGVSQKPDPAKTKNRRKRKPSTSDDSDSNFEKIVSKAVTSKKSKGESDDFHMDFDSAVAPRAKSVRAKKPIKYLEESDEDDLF
assay-name: Inhibition of recombinant human DNA topoisomerase-2alpha assessed as decrease in relaxation of supercoiled pBR322 DNA at […] after 30 mins by ethidium bromide staining based agarose gel electrophoresis relative to control
Active and inactive are the calls of the source. The rule behind the calls is not given here.
measured-metric: inhibition

> print(dat)
                               input.smiles  measured.metric  observed.measurement
1  COc1ccc(C2([C@H]3CC(=O)O[C@@H]3CO)SCCCS2)cc1OC       inhibition                 19.8%
2  COc1ccc(C[C@H]2C[C@H](n3cc(C)c(=O)[nH]c3=O)O[C@@H]2CO)cc1OC       inhibition                 23.7%
3     COc1ccc(C[C@H]2CC(=O)O[C@@H]2CO)cc1OC       inhibition              inactive
4  COc1ccc(C[C@H]2C[C@@H](n3cc(C)c(=O)[nH]c3=O)O[C@@H]2CO)cc1OC       inhibition              inactive
